assay: Highest tolerated intraperitoneal dose; details: in vivo, ip, read-out: highest tolerated dose

{"compound": "CN(C)CCCN1c2ccccc2CCc2ccccc21 [Imipramine, reference compound]", "MTD [mg/kg]": 50}

###

assay: Highest tolerated intraperitoneal dose; conditions: in vivo, ip, read-out: tolerated up to dose
quantity_name: MTD

{"smiles_text": "O=C(CN1Cc2ccccc2OC1=O)N(O)CN1CCN(CCO)CC1", "reported_value": "≥ 300 mg/kg"}
